Test system: Neurospora Crassa 846
Assay: Agar plate disc diffusion test, zone of inhibition
Assay type: cell-based
Conditions: Neurospora crassa, CRASSA846, Neurospora Crassa 846; 1 mg/ml, 7 mm disc; * measurable zone of inhibition with regrowth of organism around disc; read-out: Size of Zone of Inhibition (*)
Numbered stars: 1 amine (or outer) side, 2 acyl side, 3 side chain; on linkers, the order of the positions; unused ones are H or OH. Bridge positions count the residues as written; N and C are the ends. Square brackets hold non-standard residues; d marks the D form. Peptide text beside a SMILES is read from it. * marks the point of attachment. Orn(4R-OH,5R-OH) = O=C([C@H](C[C@@H](O)[C@@H](O)N[*:3])N[*:1])[*:2]; hTyr(3S-OH,4S-OH) = N[C@H](C(=O)O)[C@H](O)[C@@H](O)c1ccc(O)cc1; Pro(3S-OH,4S-Me) = C[C@H]1CN[C@H](C(=O)O)[C@H]1O; X1 = O=C(c1cc(I)c(N[*:1])c(I)c1)[*:2]; X6 = O=C(C=Cc1ccc(N[*:1])cc1)[*:2]; Hyp = O=C(O)[C@@H]1C[C@@H](O)CN1; X7 = Cc1ccc(C(=O)[*:2])cc1N[*:1]; Lauroyl = CCCCCCCCCCCC(=O)*; 4Abz = Nc1ccc(C(=O)O)cc1; Heptanoyl = CCCCCCC(=O)*; Aun = NCCCCCCCCCCC(=O)O
parameter measured: zone of inhibition at 1000 µg/mL (mm)
Just the number please, in mm, no unit attached.

Worked examples follow.
molecule	measure unit	zone of inhibition at 1000 µg/mL
CC(=O)Nc1ccc(C(=O)N[C@H]2C[C@@H](O)[C@@H](O)NC(=O)[C@@H]3[C@@H](O)[C@@H](C)CN3C(=O)[C@H]([C@@H](C)O)NC(=O)[C@H]([C@H](O)[C@@H](O)c3ccc(O)cc3)NC(=O)[C@@H]3C[C@@H](O)CN3C(=O)[C@H]([C@@H](C)O)NC2=O)cc1 [Example 77] (Ac-[4Abz][Orn(4R-OH,5R-OH)]T[Hyp][hTyr(3S-OH,4S-OH)]T[Pro(3S-OH,4S-Me)]; lactam 2-C)	mm	24
CCCCCCCCCCCC(=O)Nc1c(I)cc(C(=O)N[C@H]2C[C@@H](O)[C@@H](O)NC(=O)[C@@H]3[C@@H](O)[C@@H](C)CN3C(=O)[C@H]([C@@H](C)O)NC(=O)[C@H]([C@H](O)[C@@H](O)c3ccc(O)cc3)NC(=O)[C@@H]3C[C@@H](O)CN3C(=O)[C@H]([C@@H](C)O)NC2=O)cc1I [Example 68] (Lauroyl-[X1][Orn(4R-OH,5R-OH)]T[Hyp][hTyr(3S-OH,4S-OH)]T[Pro(3S-OH,4S-Me)]; lactam 2-C)	mm	30
CCCCCCCCCCCC(=O)Nc1ccc(C=CC(=O)N[C@H]2C[C@@H](O)[C@@H](O)NC(=O)[C@@H]3[C@@H](O)[C@@H](C)CN3C(=O)[C@H]([C@@H](C)O)NC(=O)[C@H]([C@H](O)[C@@H](O)c3ccc(O)cc3)NC(=O)[C@@H]3C[C@@H](O)CN3C(=O)[C@H]([C@@H](C)O)NC2=O)cc1 [Example 73] (Lauroyl-[X6][Orn(4R-OH,5R-OH)]T[Hyp][hTyr(3S-OH,4S-OH)]T[Pro(3S-OH,4S-Me)]; lactam 2-C)	mm	29
CCCCCCC(=O)NCCCCCCCCCCC(=O)N[C@H]1C[C@@H](O)[C@@H](O)NC(=O)[C@@H]2[C@@H](O)[C@@H](C)CN2C(=O)[C@H]([C@@H](C)O)NC(=O)[C@H]([C@H](O)[C@@H](O)c2ccc(O)cc2)NC(=O)[C@@H]2C[C@@H](O)CN2C(=O)[C@H]([C@@H](C)O)NC1=O [Example 76] ({Heptanoyl-Aun}-[Orn(4R-OH,5R-OH)]T[Hyp][hTyr(3S-OH,4S-OH)]T[Pro(3S-OH,4S-Me)]; lactam 1-C)	mm	20

As a next step, examine the molecule that follows.
Suppose we examine the molecule CCCCCCCCCCCC(=O)Nc1cc(C(=O)N[C@H]2C[C@@H](O)[C@@H](O)NC(=O)[C@@H]3[C@@H](O)[C@@H](C)CN3C(=O)[C@H]([C@@H](C)O)NC(=O)[C@H]([C@H](O)[C@@H](O)c3ccc(O)cc3)NC(=O)[C@@H]3C[C@@H](O)CN3C(=O)[C@H]([C@@H](C)O)NC2=O)ccc1C [Example 69] (Lauroyl-[X7][Orn(4R-OH,5R-OH)]T[Hyp][hTyr(3S-OH,4S-OH)]T[Pro(3S-OH,4S-Me)]; lactam 2-C) ; what zone of inhibition at 1000 µg/mL value has been reported? 30
